study system: Free fatty acid receptor 1 (FFA1R) (GPR40) (Homo sapiens)
Sequence (O14842 whole entry): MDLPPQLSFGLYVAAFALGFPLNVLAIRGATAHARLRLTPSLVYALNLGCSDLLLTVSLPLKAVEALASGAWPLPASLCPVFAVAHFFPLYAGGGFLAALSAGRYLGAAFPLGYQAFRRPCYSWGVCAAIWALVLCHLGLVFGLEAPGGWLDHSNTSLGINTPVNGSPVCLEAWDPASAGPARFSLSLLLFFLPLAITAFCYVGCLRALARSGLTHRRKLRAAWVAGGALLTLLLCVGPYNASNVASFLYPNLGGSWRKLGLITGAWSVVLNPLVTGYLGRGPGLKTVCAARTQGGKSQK
experimental details: FFA1R/GPR40 functional agonist assay (Ca2+ mobilization, HEK-293 cells)
run parameters: reference agonist; read-out: Reference Drugs, EC50
measurement type: EC50

Item under review: CCCCC/C=C\C/C=C\CCCCCCCC(=O)O [linoleic acid, reference compound] . Reported EC50?
10 µM

###

study system: Cannabinoid receptor 1 (CB1R) (Homo sapiens)
Construct: host or cells: CHO cells
Sequence (P21554 whole entry): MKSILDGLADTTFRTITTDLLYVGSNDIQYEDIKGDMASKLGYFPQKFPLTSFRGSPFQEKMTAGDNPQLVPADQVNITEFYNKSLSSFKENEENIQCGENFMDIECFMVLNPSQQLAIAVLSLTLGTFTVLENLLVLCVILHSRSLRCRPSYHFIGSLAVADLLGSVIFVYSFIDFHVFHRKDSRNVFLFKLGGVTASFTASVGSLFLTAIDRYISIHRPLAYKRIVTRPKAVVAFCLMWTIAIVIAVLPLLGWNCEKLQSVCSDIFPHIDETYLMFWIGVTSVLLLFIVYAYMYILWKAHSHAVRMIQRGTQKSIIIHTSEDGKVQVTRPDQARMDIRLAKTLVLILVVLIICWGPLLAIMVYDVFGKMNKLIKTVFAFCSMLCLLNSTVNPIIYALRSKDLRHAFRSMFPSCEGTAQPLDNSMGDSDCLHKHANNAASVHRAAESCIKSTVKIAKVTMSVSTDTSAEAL
experimental details: hCB1R functional antagonist assay (cAMP, HTRF, CHO cells)
Format: cell-based
run parameters: reference antagonist; read-out: Reference Drugs, IC50
measurement type: pIC50
Convention used: pIC50 is expressed as -log10 of the molar concentration.

Form field: reported pIC50 of Cc1c(C(=O)NN2CCOCC2)nn(-c2ccc(Cl)cc2Cl)c1-c1ccc(I)cc1 [AM 281, reference compound]
7.11
